# Experimental Parameters: in 2-butanone, 280.65 K
Measurement Name: solubility (mole fraction)
I'd appreciate a reply containing only the number, no unit.

Lookup: Hello, please tell me recorded solubility (mole fraction) for this one: `O=Cc1ccc(O)cc1`
Found: 0.0822

----------
# Experimental Parameters: in DMF, 283.15 K
Measurement Name: solubility (mole fraction)
I'd appreciate a reply containing only the number, no unit.

Lookup: Hello, please tell me recorded solubility (mole fraction) for this one: `O=Cc1ccc(O)cc1`
Found: 0.0997

----------
# Experimental Parameters: in n-butanol, 290.65 K
Measurement Name: solubility (mole fraction)
I'd appreciate a reply containing only the number, no unit.

Lookup: Hello, please tell me recorded solubility (mole fraction) for this one: `O=Cc1ccc(O)cc1`
Found: 0.0963

----------
# Experimental Parameters: in n-propanol, 293.15 K
Measurement Name: solubility (mole fraction)
I'd appreciate a reply containing only the number, no unit.

Lookup: Hello, please tell me recorded solubility (mole fraction) for this one: `O=Cc1ccc(O)cc1`
Found: 0.103

----------
# Experimental Parameters: in n-butanol, 285.65 K
Measurement Name: solubility (mole fraction)
I'd appreciate a reply containing only the number, no unit.

Lookup: Hello, please tell me recorded solubility (mole fraction) for this one: `O=Cc1ccc(O)cc1`
Found: 0.0775

----------
# Experimental Parameters: in n-butanol, 303.15 K
Measurement Name: solubility (mole fraction)
I'd appreciate a reply containing only the number, no unit.

Lookup: Hello, please tell me recorded solubility (mole fraction) for this one: `O=Cc1ccc(O)cc1`
Found: 0.157

----------
# Experimental Parameters: in 2-butanone, 283.15 K
Measurement Name: solubility (mole fraction)
I'd appreciate a reply containing only the number, no unit.

Lookup: Hello, please tell me recorded solubility (mole fraction) for this one: `O=Cc1ccc(O)cc1`
Found: 0.0911

----------
# Experimental Parameters: in 2-butanone, 303.15 K
Measurement Name: solubility (mole fraction)
I'd appreciate a reply containing only the number, no unit.

Lookup: Hello, please tell me recorded solubility (mole fraction) for this one: `O=Cc1ccc(O)cc1`
Found: 0.194

----------
# Experimental Parameters: in toluene, 295.65 K
Measurement Name: solubility (mole fraction)

Lookup: Hello, please tell me recorded solubility (mole fraction) for this one: `O=Cc1ccc(O)cc1`
Found: 0.00197

----------
# Experimental Parameters: in ethyl acetate, 310.65 K
Measurement Name: solubility (mole fraction)
I'd appreciate a reply containing only the number, no unit.

Lookup: Hello, please tell me recorded solubility (mole fraction) for this one: `O=Cc1ccc(O)cc1`
Found: 0.234

----------
# Experimental Parameters: in acetone, 298.15 K
Measurement Name: solubility (mole fraction)

Lookup: Hello, please tell me recorded solubility (mole fraction) for this one: `O=Cc1ccc(O)cc1`
Found: 0.159

----------
# Experimental Parameters: in methanol, 298.15 K
Measurement Name: solubility (mole fraction)
I'd appreciate a reply containing only the number, no unit.

Lookup: Hello, please tell me recorded solubility (mole fraction) for this one: `O=Cc1ccc(O)cc1`
Found: 0.0969

----------
# Experimental Parameters: in DMF, 315.65 K
Measurement Name: solubility (mole fraction)
I'd appreciate a reply containing only the number, no unit.

Lookup: Hello, please tell me recorded solubility (mole fraction) for this one: `O=Cc1ccc(O)cc1`
Found: 0.458

----------
# Experimental Parameters: in ethanol, 300.65 K
Measurement Name: solubility (mole fraction)
I'd appreciate a reply containing only the number, no unit.

Lookup: Hello, please tell me recorded solubility (mole fraction) for this one: `O=Cc1ccc(O)cc1`
Found: 0.128
